- Assay summary: blood levels of tacrolimus after one 0.3 mg oral capsule in healthy human volunteers
- Assay type: in vivo
- Study conditions: human, blood; 0.3 mg oral capsule, level after 24 hours of administration of each dose, healthy volunteers; read-out: average trough level of tacrolimus
Assay metric: concentration at 24 h

Which concentration at 24 h is reported for this molecule? C=CC[C@@H]1/C=C(\C)C[C@H](C)C[C@H](OC)[C@H]2O[C@@](O)(C(=O)C(=O)N3CCCC[C@H]3C(=O)O[C@H](/C(C)=C/[C@@H]3CC[C@@H](O)[C@H](OC)C3)[C@H](C)[C@@H](O)CC1=O)[C@H](C)C[C@@H]2OC [RDC5, tacrolimus] ~0.22 ng/mL

Each recorded value in this set is attributed to patent US20160120853A1.
